Please respond with reported protein stability index for every item in the list.
B1: HESX1 (parent)
chain: SKYENYFSASERLSLKRELSWYRG

- Variants of: B1
- test_summary: protein stability index of a GFP-peptide fusion (GPS, HEK-293T) (PSI 1-6); higher = more stable;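 note: lentivirally expressed fusions sorted by FACS into six bins by GFP to DsRed ratio, PSI derived from sequencing read proportions per bin multiplied by bin number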
- settings: c terminus: a fixed tail appended
Give bare numbers.

Example results:
S10D :: 2.19
E18C :: 1.43

Answer for every listed entry: what is its protein stability index? The entries follow.
1. L13G
2. L19V
3. N5F
4. R17H
5. E11D

Output:
[1.93, 1.79, 1.03, 2.1, 2.39]
